# reported solubility; entries follow
test: Aqueous solubility; type: physicochemical; conditions: aqueous (water)

Molecule | Unit Abbrev | solubility
CSCCC(N)C(=O)NNC(=O)c1ccncc1 (stereo not shown) | mg/mL | 114
CC(S)C(=O)NCC(=O)NNC(=O)c1ccncc1 (stereo not shown) | mg/mL | 94
CC(=O)NC(CS)C(=O)NNC(=O)c1ccncc1 (stereo not shown) | mg/mL | 104
NNC(=O)c1ccncc1 [INH, isoniazid, reference compound] | mg/mL | 135

----------
# reported half-life; entries follow
assay: In vitro release kinetics in rat intestinal homogenates; assay type: in vitro ADME; settings: rat, intestinal homogenates

Molecule | half-life (h)
CSCCC(N)C(=O)NNC(=O)c1ccncc1 (stereo not drawn) | 3.02
CC(=O)NC(CS)C(=O)NNC(=O)c1ccncc1 (stereo not drawn) | 3.89
CC(S)C(=O)NCC(=O)NNC(=O)c1ccncc1 (stereo not drawn) | 3.62

The reported numbers originate from paper PMC6068850.
